- Experimental system: HIV-1 protease Mutant 9 (Human immunodeficiency virus type 1)
- Test: Ki against HIV-1 protease Mutant 9
- Assay type: biochemical
- Measurement conditions: HIV-1 protease Mutant 9
Observation type: pKi
Please report pKi as the negative decimal logarithm of the molar concentration, giving only the number.

Here's what some known entries look like.
Request the reported pKi associated with CC(C)CN(CC(O)C(Cc1ccccc1)NC(=O)OC1COC2OCCC12)S(=O)(=O)c1ccc2onc(CNS(C)(=O)=O)c2c1 (stereo not shown)
9.47

Request the reported pKi associated with COCc1noc2ccc(S(=O)(=O)N(CC(C)C)CC(O)C(Cc3ccccc3)NC(=O)OC3COC4OCCC34)cc12 (stereo not shown)
9.31

Request the reported pKi associated with CC(C)CN(CC(O)C(Cc1ccccc1)NC(=O)OC1COC2OCCC12)S(=O)(=O)c1ccc2onc(CN3CCOCC3)c2c1 (stereo not shown)
8.43

---
Request the reported pKi associated with CC(=O)N(Cc1noc2ccc(S(=O)(=O)N(CC(C)C)CC(O)C(Cc3ccccc3)NC(=O)OC3COC4OCCC34)cc12)CC(F)(F)F (stereo not shown)
8.96

Request the reported pKi associated with CC(C)CN(CC(O)C(Cc1ccccc1)NC(=O)OC1COC2OCCC12)S(=O)(=O)c1ccc2onc(CNCCCN3CCCC3=O)c2c1 (stereo not shown)
9.57

====

- Experimental system: wild type HIV-1 protease (Human immunodeficiency virus type 1 group M subtype B)
- Construct: over 45 of the 99 amino acids of the HIV protease monomer
- Test: Ki against wild type (WT) HIV-1 protease
- Assay type: biochemical
- Measurement conditions: WT
Overview of reported Ki across a group of compounds:

Request the reported Ki associated with COCc1coc2ccc(S(=O)(=O)N(CC(C)C)CC(O)C(Cc3ccccc3)NC(=O)OC3COC4OCCC34)cc12 (stereo not drawn)
130 pM

Request the reported Ki associated with CC(C)CN(C[C@@H](O)[C@H](Cc1ccccc1)NC(=O)OC1COC2OCCC12)S(=O)(=O)c1ccc2occ(CN3CCCCC3)c2c1 (stereo partly drawn)
< 100 pM

Shift focus to the following entry.
Request the reported Ki associated with CC(C)CN(C[C@@H](O)[C@H](Cc1ccccc1)NC(=O)OC1COC2OCCC12)S(=O)(=O)c1ccc2occ(CNC(=O)c3cccnc3)c2c1 (stereo partly drawn)
< 100 pM

====

- Experimental system: wild type HIV-1 protease (Human immunodeficiency virus type 1 group M subtype B)
- Construct: over 45 of the 99 amino acids of the HIV protease monomer
- Test: Ki against wild type (WT) HIV-1 protease
- Type: biochemical
- Measurement conditions: wild type HIV-1 protease
pKi: −log10 of the molar value.
Observation type: pKi

Here's what some known entries look like.
Request the reported pKi associated with CC(C)CN(CC(O)C(Cc1ccccc1)NC(=O)OC1COC2OCCC12)S(=O)(=O)c1ccc2onc(CSCC(F)(F)F)c2c1 (stereo not shown) [Compound 233]
> 10.00

Request the reported pKi associated with CC(C)CN(CC(O)C(Cc1ccccc1)NC(=O)OC1COC2OCCC12)S(=O)(=O)c1ccc2onc(CO)c2c1 (stereo not shown) [Compound 213]
> 10.00

Request the reported pKi associated with CC(C)CN(CC(O)C(Cc1ccccc1)NC(=O)OC1COC2OCCC12)S(=O)(=O)c1ccc2onc(CNC(=O)C(F)(F)C(F)(F)F)c2c1 (stereo not shown) [Compound 245]
> 10.00

---
Request the reported pKi associated with CC(C)CN(CC(O)C(Cc1ccccc1)NC(=O)OC1COC2OCCC12)S(=O)(=O)c1ccc2onc(CNCCc3ccccn3)c2c1 (stereo not shown) [Compound 224]
> 10.00
